Tested on: Fibroblast
experiment-summary: Multiplex assay against human fibroblast
Type: toxicity, cell-based
applied-conditions: 12 h, 10 µM, compound concentration 10 uM, replicate 2
# cutoff 50% applies to Population Apoptotic (%); >= gives met, < gives not met

API: above_or_equal(metric=Population Apoptotic (%), cutoff=50%) for item CC[C@H](C)C(=O)O[C@H]1C[C@@H](C)C=C2C=C[C@H](C)[C@H](CC[C@@H]3C[C@@H](O)CC(=O)O3)[C@H]21
met

API: above_or_equal(metric=Population Apoptotic (%), cutoff=50%) for item Cc1sc2c(c1C)C(c1ccc(Cl)cc1)=N[C@@H](CC(=O)OC(C)(C)C)c1nnc(C)n1-2
met

API: above_or_equal(metric=Population Apoptotic (%), cutoff=50%) for item C=CC(=O)Nc1cccc(C(=O)Nc2ccc(Nc3cc(-c4[nH]c(SC)nc4C)ccn3)cc2)c1
not met

API: above_or_equal(metric=Population Apoptotic (%), cutoff=50%) for item CN(C)C(=O)N[C@H]1CC[C@H](CCN2CCN(c3cccc(Cl)c3Cl)CC2)CC1.Cl [CARIPRAZINE HYDROCHLORIDE]
not met

API: above_or_equal(metric=Population Apoptotic (%), cutoff=50%) for item Cc1cc(C)cc(-c2cnc3cc(Cl)c(-c4cccc(O)c4)cc3c2OCCCN)c1
met

API: above_or_equal(metric=Population Apoptotic (%), cutoff=50%) for item Cc1nc(Nc2n[nH]c3c2CN(C(=O)N[C@H](CN(C)C)c2ccccc2)C3(C)C)c2sccc2n1
not met

API: above_or_equal(metric=Population Apoptotic (%), cutoff=50%) for item CNc1nc(NCc2ccc(NS(C)(=O)=O)cc2Cl)cc(-c2ccccn2)n1
met

---

Assignment: determine reported Total Cell Count for the given molecules.
Tested on: HEK-293T
experiment-summary: Multiplex assay against HEK293T
Format: toxicity, cell-based
applied-conditions: human, 48 h, 1 µM, compound concentration 1 uM, replicate 2
Hey, just send me the number, nothing else.

Given COc1ncc(-c2ccc3nccc(-c4ccnnc4)c3c2)cc1NS(=O)(=O)c1ccc(F)cc1F , state its recorded Total Cell Count.
181

Given Cl.N#Cc1ccc2[nH]cc(CCCCN3CCN(c4ccc5oc(C(N)=O)cc5c4)CC3)c2c1 [VILAZODONE HYDROCHLORIDE] , state its recorded Total Cell Count.
263

Given Cc1[nH]c(/C=C2\C(=O)Nc3ccc(S(=O)(=O)N(C)c4cccc(Cl)c4)cc32)c(C)c1C(=O)N1CCN(C)CC1 , state its recorded Total Cell Count.
469

Given CN1CCC[C@@H]1CCO[C@](C)(c1ccccc1)c1ccc(Cl)cc1.O=C(O)/C=C/C(=O)O [CLEMASTINE FUMARATE] , state its recorded Total Cell Count.
406

---

System: U2OS
experiment-summary: Multiplex assay against U2OS
Type: toxicity, cell-based
applied-conditions: human, 12 h, 10 µM, compound concentration 10 uM, replicate 1
# cutoff 40% applies to Population Healthy Nuclei (%); >= gives met, < gives not met

API: above_or_equal(metric=Population Healthy Nuclei (%), cutoff=40%) for item Cl.N#Cc1ccc2[nH]cc(CCCCN3CCN(c4ccc5oc(C(N)=O)cc5c4)CC3)c2c1 [VILAZODONE HYDROCHLORIDE]
not met

API: above_or_equal(metric=Population Healthy Nuclei (%), cutoff=40%) for item CC(C)(O)CNc1ncc(-c2ccnc(Nc3ccnc(Cl)c3)n2)c(CC2CC2)n1
met

API: above_or_equal(metric=Population Healthy Nuclei (%), cutoff=40%) for item CN(C)C(=O)/C(C#N)=C/c1ccc(-c2nc3cnc4[nH]ccc4c3n2C2CCCCC2)o1
met

API: above_or_equal(metric=Population Healthy Nuclei (%), cutoff=40%) for item Cc1cc(C)cc(-c2cnc3cc(Cl)c(-c4cccc(O)c4)cc3c2OCCCN)c1
not met

API: above_or_equal(metric=Population Healthy Nuclei (%), cutoff=40%) for item COc1ncc(-c2ccc3nccc(-c4ccnnc4)c3c2)cc1NS(=O)(=O)c1ccc(F)cc1F [OMIPALISIB]
not met

API: above_or_equal(metric=Population Healthy Nuclei (%), cutoff=40%) for item COc1cc(-n2cnc3cc(-c4ccc(Cl)cc4)sc3c2=O)ccc1OCCN1CCCC1
not met

API: above_or_equal(metric=Population Healthy Nuclei (%), cutoff=40%) for item Cc1nc(-c2cn3c(n2)-c2ccc(-c4cnn(C(C)(C)C(N)=O)c4)cc2OCC3)n(C(C)C)n1 [TASELISIB]
met

API: above_or_equal(metric=Population Healthy Nuclei (%), cutoff=40%) for item CNc1nc(NCc2ccc(NS(C)(=O)=O)cc2Cl)cc(-c2ccccn2)n1
met

Origin of measurements: ChEMBL document CHEMBL4689842
